Molecular target: full-length proMMP9(1-707) (SEQ ID NO:1) (Homo sapiens, UniProt P14780, R574P)
Construct: made in house; host or cells: HEK293 (proMMP9, secreted); E. coli (MMP3)
Sequence (P14780 20-707 R574P): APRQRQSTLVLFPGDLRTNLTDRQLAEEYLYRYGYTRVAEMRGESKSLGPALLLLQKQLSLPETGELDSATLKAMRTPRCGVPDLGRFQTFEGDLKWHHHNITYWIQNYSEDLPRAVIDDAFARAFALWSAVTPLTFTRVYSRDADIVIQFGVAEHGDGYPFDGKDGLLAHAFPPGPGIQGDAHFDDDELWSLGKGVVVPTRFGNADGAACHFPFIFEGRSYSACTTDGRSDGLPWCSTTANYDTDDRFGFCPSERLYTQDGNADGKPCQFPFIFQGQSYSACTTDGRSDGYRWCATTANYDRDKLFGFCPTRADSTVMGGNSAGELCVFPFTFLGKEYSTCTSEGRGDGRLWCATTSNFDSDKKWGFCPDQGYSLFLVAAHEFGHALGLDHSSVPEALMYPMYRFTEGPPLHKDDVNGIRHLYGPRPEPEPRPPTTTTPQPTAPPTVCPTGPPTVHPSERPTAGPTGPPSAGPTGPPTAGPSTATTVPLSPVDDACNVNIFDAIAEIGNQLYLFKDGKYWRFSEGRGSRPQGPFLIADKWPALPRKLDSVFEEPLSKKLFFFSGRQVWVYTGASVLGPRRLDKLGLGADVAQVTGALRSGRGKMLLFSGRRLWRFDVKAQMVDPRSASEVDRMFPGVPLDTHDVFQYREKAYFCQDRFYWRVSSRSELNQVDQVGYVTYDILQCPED
Assay: proMMP9/MMP3 P126 Activation Assay
Format: biochemical
Details: 20 nM proMMP9, 20 nM MMP3, 80 min 37° C.
pIC50: −log10 of the molar value.
Value type: pIC50

These recorded examples may help you get a feel for the data.
{"Structure as smiles": "Cc1nc(CN2CCN(C)CC2)sc1-c1csc(Nc2cc(C(N)=O)ccc2OC(C)C)n1", "Target": "full-length proMMP9(1-707) (SEQ ID NO:1) (Homo sapiens, UniProt P14780, R574P)", "pIC50": 6.14}
{"Structure as smiles": "Cc1nc(NC(=O)C2CCN(C)CC2)sc1-c1csc(Nc2cc(C(N)=O)ccc2OC(C)C)n1", "Target": "full-length proMMP9(1-707) (SEQ ID NO:1) (Homo sapiens, UniProt P14780, R574P)", "pIC50": 6.82}
{"Structure as smiles": "CC(=O)Nc1nc(C)c(-c2csc(Nc3cc(C#N)ccc3OC(C)C)n2)s1", "Target": "full-length proMMP9(1-707) (SEQ ID NO:1) (Homo sapiens, UniProt P14780, R574P)", "pIC50": 6.28}
{"Structure as smiles": "Cc1nc(C(=O)N2CCN(C3CCCCC3)CC2)sc1-c1csc(Nc2cc(C(N)=O)ccc2OC(C)C)n1", "Target": "full-length proMMP9(1-707) (SEQ ID NO:1) (Homo sapiens, UniProt P14780, R574P)", "pIC50": 5.77}
{"Structure as smiles": "CCOc1ccncc1Nc1nc(-c2sc(C3CCN(C)CC3)nc2C)cs1", "Target": "full-length proMMP9(1-707) (SEQ ID NO:1) (Homo sapiens, UniProt P14780, R574P)", "pIC50": 6.54}
{"Structure as smiles": "Cc1nc(N)sc1-c1csc(Nc2cc(C#N)ccc2OC(C)C)n1", "Target": "full-length proMMP9(1-707) (SEQ ID NO:1) (Homo sapiens, UniProt P14780, R574P)", "pIC50": 6.06}
{"Structure as smiles": "Cc1nc(N(C)C)sc1-c1csc(Nc2cc(C(N)=O)ccc2OC(C)C)n1", "Target": "full-length proMMP9(1-707) (SEQ ID NO:1) (Homo sapiens, UniProt P14780, R574P)", "pIC50": 6.42}
{"Structure as smiles": "Cc1ccc(C(N)=O)cc1Nc1nc(-c2sc(N)nc2C)cs1", "Target": "full-length proMMP9(1-707) (SEQ ID NO:1) (Homo sapiens, UniProt P14780, R574P)", "pIC50": 5.34}

a = Cc1nc(CN(C)C)sc1-c1csc(Nc2cc(C(N)=O)ccc2OC(C)C)n1
b = Cc1nc(N2CCOCC2)sc1-c1csc(Nc2cc(C(N)=O)ccc2OC(C)C)n1
c = COc1ccc(-c2ccnn2C)cc1Nc1nc(-c2sc(C)nc2C)cs1
Challenge: // ascending sort on recorded pIC50 # respond with the labels, arranged in the requested order
Response given: c, a, b

A = Cc1nc(N2CCCC2)sc1-c1csc(Nc2cc(C(N)=O)ccc2OC(C)C)n1
B = Cc1nc(CN(C)CCN(C)C)sc1-c1csc(Nc2cc(C(N)=O)ccc2OC(C)C)n1
Challenge: Of the two listed items, A and B , which carries the larger pIC50 figure? Let me know the label of the one you choose.
Response given: A

====

Molecular target: proMMP13(1-268) (SEQ ID NO:7) (Homo sapiens)
Test: ThermoFluor binding assay with proMMP13(1-268)
Settings: pH 7.0
pKd: −log10 of the molar value. Counter-ions that a name gives are not always drawn.
Value type: pKd

{"Compound": "CCOC(=O)c1ccc(OCC)c(Nc2nc(-c3sc(NC(C)=O)nc3C)cs2)c1", "pKd": 5.82}
{"Compound": "Cc1nc(CN2CCN(C(C)C)CC2)sc1-c1csc(Nc2cc(C(N)=O)ccc2OC(C)C)n1", "pKd": 5.31}
{"Compound": "Cc1nc(C)c(-c2csc(Nc3cc(S(N)(=O)=O)ccc3OC(F)(F)F)n2)s1", "pKd": 5.44}
{"Compound": "Cc1nc(NC(=O)C2CCN(C)CC2)sc1-c1csc(Nc2cc(C(N)=O)ccc2OC(C)C)n1", "pKd": 5.72}
{"Compound": "COc1ccc(C(N)=O)cc1Nc1nc(-c2sc(N)nc2C)cs1", "pKd": 5.31}
{"Compound": "CCOc1ccc(C(=O)O)cc1Nc1nc(-c2sc(C)nc2C)cs1", "pKd": 5.62}
{"Compound": "Cc1nc(CN2CCC(O)CC2)sc1-c1csc(Nc2cc(C(N)=O)ccc2OC(C)C)n1", "pKd": 5.07}
{"Compound": "COC(=O)c1ccc(OC)c(Nc2nc(-c3sc(N)nc3C)cs2)c1 [Example 86, TFA]", "pKd": 5.47}
{"Compound": "Cc1nc(CN2CCN(C)CC2)sc1-c1csc(Nc2cc(C(N)=O)ccc2OC(C)C)n1", "pKd": 5.25}
{"Compound": "CCOc1ccc(C(N)=O)cc1Nc1nc(-c2sc(C(=O)N3CCN(C)CC3)nc2C)cs1", "pKd": 5.19}

A = CCS(=O)(=O)c1ccc(OC)c(Nc2nc(-c3sc(C)nc3C)cs2)c1
B = COc1ccc(C(=O)O)cc1Nc1nc(-c2sc(N)nc2C)cs1
C = COc1ccc(C(N)=O)cc1Nc1nc(-c2sc(N3CCN(C)CC3)nc2C)cs1
Challenge: Form: Sort by [pKd] Order [ ascending ] Reply: labels, ordered per the request.
Response given: C, B, A

P = Cc1nc(CN(C)CCN(C)C)sc1-c1csc(Nc2cc(C(N)=O)ccc2OC(C)C)n1
Q = CCS(=O)(=O)c1ccc(OC)c(Nc2nc(-c3sc(N)nc3C)cs2)c1
Challenge: # min-compare on pKd between P and Q Lab note: record the label of whichever item you select.
Response given: P
(P: 5.42, Q: 5.72)

====

Biological target: proMMP13(1-268) (SEQ ID NO:7) (Homo sapiens, UniProt P45452)
Assay: ThermoFluor binding assay with proMMP13(1-268)
Details: pH 7.0
pKd: −log10 of the molar value.
Value type: pKd

These recorded examples may help you get a feel for the data.
{"Structure as smiles": "Cc1nc(C)c(-c2csc(Nc3cc(S(C)(=O)=O)ccc3OC(C)C)n2)s1", "Target": "proMMP13(1-268) (SEQ ID NO:7) (Homo sapiens, UniProt P45452)", "Value type": "pKd", "Recorded result": 6.70}
{"Structure as smiles": "Cc1nc(C(=O)N2CCN(C3CCCCC3)CC2)sc1-c1csc(Nc2cc(C(N)=O)ccc2OC(C)C)n1", "Target": "proMMP13(1-268) (SEQ ID NO:7) (Homo sapiens, UniProt P45452)", "Value type": "pKd", "Recorded result": 6.49}
{"Structure as smiles": "Cc1nc(C(=O)N(C)CCN(C)C)sc1-c1csc(Nc2cc(C(N)=O)ccc2OC(C)C)n1", "Target": "proMMP13(1-268) (SEQ ID NO:7) (Homo sapiens, UniProt P45452)", "Value type": "pKd", "Recorded result": 6.27}

I = CCS(=O)(=O)c1ccc(OC)c(Nc2nc(-c3sc(NC(C)=O)nc3C)cs2)c1
II = CCOc1ccc(C(N)=O)cc1Nc1nc(-c2sc(C)nc2C)cs1
Challenge: // select label with min value of measured pKd from [ I , II ] Refer to your chosen item by its label in the answer.
Response given: I
(I: 5.21, II: 5.70)

A = COc1ccc(-c2nccs2)cc1Nc1nc(-c2sc(C)nc2C)cs1
B = Cc1nc(Nc2ccccn2)sc1-c1csc(Nc2cc(C(N)=O)ccc2OC(C)C)n1
Challenge: When their pKd values are compared, which is larger, A or B ? Mark your answer with the label of the selected entry.
Response given: A

====

Biological target: proMMP9(67-444;ΔFnII) (SEQ ID NO:5) (Homo sapiens, UniProt P14780, DEL216-390)
Construct: start methionine (N); made in house; host or cells: E. coli BL21(DE3) RIL
Sequence (P14780 with tags, fused parts or gaps DEL216-390): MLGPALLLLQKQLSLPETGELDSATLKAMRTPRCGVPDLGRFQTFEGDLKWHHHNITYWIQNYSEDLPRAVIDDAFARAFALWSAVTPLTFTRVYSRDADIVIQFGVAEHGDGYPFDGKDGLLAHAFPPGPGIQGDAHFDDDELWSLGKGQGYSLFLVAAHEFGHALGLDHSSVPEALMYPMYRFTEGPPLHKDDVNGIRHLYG
Assay: ThermoFluor binding assay with proMMP9(67-444;ΔFnII)
Settings: pH 7.0
pKd: −log10 of the molar value.
Value type: pKd

{"Structure as smiles": "CCS(=O)(=O)c1ccc(OC)c(Nc2nc(-c3sc(C)nc3C)cs2)c1", "pKd": 5.59}
{"Structure as smiles": "CCOc1ccc(C(N)=O)cc1Nc1nc(-c2sc(C)nc2C)cs1", "pKd": 6.24}
{"Structure as smiles": "COc1ccc(C(=O)O)cc1Nc1nc(-c2sc(NC(C)=O)nc2C)cs1", "pKd": 5.77}
{"Structure as smiles": "CCOc1ccc(C(N)=O)cc1Nc1nc(-c2sc(C(=O)N(C)CCN(C)C)nc2C)cs1", "pKd": 6.00}
{"Structure as smiles": "CCOc1ccc(C(=O)O)cc1Nc1nc(-c2sc(NC(C)=O)nc2C)cs1", "pKd": 5.43}
{"Structure as smiles": "Cc1nc(N)sc1-c1csc(Nc2cc(C(=O)O)ccc2OC(C)C)n1", "pKd": 6.35}
{"Structure as smiles": "COc1ccc(-c2ccnn2C)cc1Nc1nc(-c2sc(C)nc2C)cs1", "pKd": 4.96}
{"Structure as smiles": "COc1ccc(C(=O)NCc2ccccc2)cc1Nc1nc(-c2sc(NC(C)=O)nc2C)cs1", "pKd": 5.57}
{"Structure as smiles": "CCOc1ccc(S(N)(=O)=O)cc1Nc1nc(-c2sc(C)nc2C)cs1", "pKd": 6.39}
{"Structure as smiles": "CCN(CC)c1nc(C)c(-c2csc(Nc3cc(C(N)=O)ccc3OC(C)C)n2)s1", "pKd": 5.77}

1 = COc1ccc(-c2ccccc2)cc1Nc1nc(-c2sc(N)nc2C)cs1
2 = COc1ccc(S(N)(=O)=O)cc1Nc1nc(-c2sc(C)nc2C)cs1
Challenge: Hi team, can someone confirm which has the larger pKd: 1 or 2 ? Thanks. # respond with the chosen item's label
Response given: 2

P = Cc1nc(N2CCN(C)CC2)sc1-c1csc(Nc2cc(S(N)(=O)=O)ccc2OC(C)C)n1
Q = COc1ccc(-c2cc[nH]n2)cc1Nc1nc(-c2sc(C)nc2C)cs1
R = COc1ccc(C(N)=O)cc1Nc1nc(-c2sc(N)nc2C)cs1
Challenge: Order by pKd, ascending. Answer with the labels in sequence, matching the requested order.
Response given: Q, R, P

I = Cc1nc(CN(C)CCN(C)C)sc1-c1csc(Nc2cc(C(N)=O)ccc2OC(C)C)n1
II = Cc1nc(C)c(-c2csc(Nc3cc(S(C)(=O)=O)ccc3OC(C)C)n2)s1
III = Cc1nc(C)c(-c2csc(Nc3cc(C(N)=O)ccc3OC(C)(C)C)n2)s1
IV = C=Cc1ccc(OC)c(Nc2nc(-c3sc(C)nc3C)cs2)c1
Challenge: Sort the compounds on pKd; start with the lowest figure. Provide your answer as the labels ordered per the instruction.
Response given: IV, III, I, II

The origin of these recorded values is patent US20120129842A1.
